System Name: Nuclear receptor subfamily 1 group I member 3 (Homo sapiens) (UniProt Q14994)
Sequence (Q14994 whole entry, looked up): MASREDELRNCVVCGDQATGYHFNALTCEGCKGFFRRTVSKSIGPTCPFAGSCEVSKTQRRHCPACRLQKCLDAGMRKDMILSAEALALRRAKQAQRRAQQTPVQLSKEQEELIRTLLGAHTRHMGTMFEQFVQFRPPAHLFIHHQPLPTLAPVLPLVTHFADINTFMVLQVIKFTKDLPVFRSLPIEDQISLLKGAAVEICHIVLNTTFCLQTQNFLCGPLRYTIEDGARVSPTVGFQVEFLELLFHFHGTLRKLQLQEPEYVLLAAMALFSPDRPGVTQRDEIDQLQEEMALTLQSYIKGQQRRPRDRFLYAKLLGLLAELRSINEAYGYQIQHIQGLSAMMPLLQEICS
Measurement Description: qHTS assay to identify small molecule antagonists of the constitutive androstane receptor (CAR) signaling pathway (AID 1224838);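 further: HepG2 cells stably expressing hCAR with CYP2B6 luciferase reporter stimulated by CITCO; nearly all actives have a fitted effect of over 40% in size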
Run Conditions: HepG2-CYP2B6-hCAR luciferase, CITCO-stimulated, 24 h; series mostly up to 92.4 µM
Excerpt: U.S. Tox21 Program National Center for Advancing Translational Sciences [NCATS] NIH Chemical Genomics Center [NCGC] U.S. Environmental Protection Agency [EPA] National Institutes of Environmental Health Sciences [NIEHS] National Toxicology Program [NTP] U.S. Food and Drug Administration [FDA] […] Tox21 Assay Protocol Summary: A double-stable (hCAR and CYP2B6-2.2kb) transfected cell line, derived from human hepatoma (HepG2) cells, was utilized for the duration of the quantitative high-throughput screens. […]
Records with an inconclusive call do not appear. The source made the active and inactive calls. The call rests on the fitted dose curve; in most records, active means well fitted inhibition curve with a large enough effect in the repeat runs; inconclusive means weak or mixed curves, or effect the other way; inactive means no such curve, though single readings can be large or run the other way.
Thanks in advance; please answer with one of these: 1 (yes) (active), 0 (no) (inactive)

Each compound tested received a call. Report the one for `COCC(=O)N(c1c(C)cccc1C)[C@H](C)C(=O)OC` .
0 (no)

Try the compound `Cc1cc(SCc2sc(-c3ccc(C(F)(F)F)c(F)c3)nc2C)ccc1OCC(=O)O`
0 (no)

Try the compound `ClC1=C(Cl)[C@]2(Cl)[C@@H]3[C@@H](Cl)[C@H](Cl)C[C@@H]3[C@@]1(Cl)C2(Cl)Cl`
0 (no)

Try the compound `CCc1nn(C)c(C(=O)NCc2ccc(C(C)(C)C)cc2)c1Cl`
0 (no)

Try the compound N#CCCC(Br)(C#N)CBr (stereo not drawn)
1 (yes)

Try the compound `CCOP(=S)(OCC)SCS(=O)(=O)C(C)(C)C`
0 (no)

Try the compound `O=C(CCl)Nc1ccccc1`
1 (yes)

Try the compound CC(Cl)CN(C)C (stereo not drawn)
0 (no)

Try the compound `C=CC(=O)OCC(COC(=O)C=C)(COC(=O)C=C)COC(=O)C=C`
1 (yes)

Try the compound `CC(C)CCCCCCCOP(=O)(Oc1ccccc1)Oc1ccccc1`
0 (no)

Try the compound `C=COCCCl`
0 (no)

Try the compound `Oc1ccccc1Br`
0 (no)

Try the compound `NC(=O)CCl`
0 (no)
